- System: rice (Oryza sativa)
- assay-procedure: Test B flooded paddy test
- Type: in vivo
- experimental-conditions: Flood (flooded paddy test), 125 g ai/ha; scale 0 to 100, 0 is no effect, 100 is complete control; 13 to 15 days
- Excerpt: Plant species in the flooded paddy test consisted of rice (Oryza sativa), umbrella sedge (Cyperus difformis), ducksalad (Heteranthera limosa) and barnyardgrass (Echinochloa crus-galli) grown to the 2-leaf stage for testing. […] Treated plants and controls were maintained in a greenhouse for 13 to 15 days, after which time all treated plants were visually evaluated and compared to controls. […]
quantity-kind: Plant response rating, Rice

[
  {
    "compound": "O=C1CCCC(O)=C1C(=O)c1cnc(-c2ccccc2)n(C2CCSCC2)c1=O",
    "study-system": "rice (Oryza sativa)",
    "result": 20
  },
  {
    "compound": "CCn1c(-c2ccccc2)ncc(C(=O)C2=C(O)C3CCC(C3)C2=O)c1=O (centres unmarked)",
    "study-system": "rice (Oryza sativa)",
    "result": 0
  },
  {
    "compound": "O=C1CCCC(O)=C1C(=O)c1cnc(-c2ccccc2)n(CC2CCCO2)c1=O (centres unmarked)",
    "study-system": "rice (Oryza sativa)",
    "result": 15
  },
  {
    "compound": "CCCc1ncc(C(=O)C2=C(O)CCCC2=O)c(=O)n1Cc1cccc(OC(F)(F)F)c1",
    "study-system": "rice (Oryza sativa)",
    "result": 0
  },
  {
    "compound": "O=C1CCCC(O)=C1C(=O)c1cnc(-c2ccc(Cl)s2)n(-c2ccccc2)c1=O",
    "study-system": "rice (Oryza sativa)",
    "result": 0
  },
  {
    "compound": "CCc1ccc(-n2c(-c3cc(F)cc(F)c3)ncc(C(=O)C3=C(O)CCCC3=O)c2=O)cc1",
    "study-system": "rice (Oryza sativa)",
    "result": 40
  },
  {
    "compound": "O=C1CCCC(O)=C1C(=O)c1cnc(-c2ccccc2Cl)n(-c2ccccc2)c1=O",
    "study-system": "rice (Oryza sativa)",
    "result": 0
  },
  {
    "compound": "CCCCc1ncc(C(=O)C2=C(O)CCCC2=O)c(=O)n1-c1ccc(C)cc1",
    "study-system": "rice (Oryza sativa)",
    "result": 0
  }
]

###

Reported Plant response rating, Ryegrass, Italian values are given for each entry in this list.
- System: Italian ryegrass (Lolium multiflorum)
- assay-procedure: Test B pre-/postemergence plant response
- Format: in vivo
- experimental-conditions: Postemergence, 250 g ai/ha; scale 0 to 100 (0 no effect, 100 complete control); 13 to 15 days

[
  {
    "compound": "COCCn1c(-c2cccc(C)c2)ncc(C(=O)C2=C(O)C3CCC(C3)C2=O)c1=O (stereo not shown) [Compound 233]",
    "study-system": "Italian ryegrass (Lolium multiflorum)",
    "Plant response rating, Ryegrass, Italian": 60
  },
  {
    "compound": "COCCn1c(-c2ccsc2)ncc(C(=O)C2=C(O)C3CCC(C3)C2=O)c1=O (stereo not shown) [Compound 228]",
    "study-system": "Italian ryegrass (Lolium multiflorum)",
    "Plant response rating, Ryegrass, Italian": 0
  },
  {
    "compound": "COCCCn1c(-c2cccc(F)c2)ncc(C(=O)C2=C(O)C3CCC(C3)C2=O)c1=O (stereo not shown) [Compound 238]",
    "study-system": "Italian ryegrass (Lolium multiflorum)",
    "Plant response rating, Ryegrass, Italian": 70
  },
  {
    "compound": "COc1ccc(-n2c(-c3ccccc3)ncc(C(=O)C3=C(O)CCCC3=O)c2=O)cc1OC [Compound 218]",
    "study-system": "Italian ryegrass (Lolium multiflorum)",
    "Plant response rating, Ryegrass, Italian": 70
  }
]
